Tested on: Huh7 cells
experimental_conditions: at 10 μM, compared with vehicle control, n = 1

{"compound": "CN1CCC2=C[C@H](O)[C@H]3OC(=O)c4cc5c(cc4[C@H]3[C@@H]21)OCO5", "Cytotoxicity to the host Huh7 cells %": "25%"}
{"compound": "CO[C@@H]1C=C[C@@]23c4cc5c(cc4CN(C[C@@H]2O)[C@H]3C1)OCO5 [Compound 3, (+)‐haemanthamine]", "Cytotoxicity to the host Huh7 cells %": "50%"}
{"compound": "COc1ccc(Cc2nccc3cc(OC)c(OC)cc23)cc1OC", "Cytotoxicity to the host Huh7 cells %": "20%"}

---

Test system: Huh7 cells
experimental_conditions: at 10 μM, compared with vehicle control, n = 1
Below, each of the compounds is paired with its reported Cytotoxicity to the host Huh7 cells % value.
readout_kind: Cytotoxicity to the host Huh7 cells %

{"compound": "COc1cc2c(cc1OC)[C@@H](O)O[C@@H]1CC=C3CCN(C)[C@H]3[C@H]21 [Compound 7, lycorenine]", "observed_measurement": "20%"}
{"compound": "O[C@@H]1Cc2cc3c(cc2[C@@H]2NCc4c(ccc5c4OCO5)[C@H]12)OCO3 [Compound 48, norchelidonine]", "observed_measurement": "50%"}
{"compound": "COc1ccc2c(c1OC)C(=O)O[C@@H]2[C@H]1c2c(cc3c(c2OC)OCO3)CCN1C [Compound 55, (−)‐narcotine]", "observed_measurement": "20%"}

---

Tested on: Huh7 cells
experimental_conditions: at 10 μM, compared with vehicle control, n = 1

{"compound": "CN1CCC2=CCC3OC(O)c4cc5c(cc4C3C21)OCO5 (stereo not shown) [Compound 8, oduline]", "Cytotoxicity to the host Huh7 cells %": "20%"}

---

test: in vitro
experimental_conditions: human

{"molecule": "COc1cc2c3cc1Oc1c(O)c(OC)cc4c1[C@@H](Cc1ccc(O)c(c1)Oc1ccc(cc1)C[C@@H]3N(C)CC2)N(C)CC4 [Compound 19, (+)‐obamegine]", "unit_info": "%", "viability at 10 µM": 97.5}
{"molecule": "COc1cc2c3cc1Oc1c(OC)c(OC)cc4c1[C@@H](Cc1ccc(O)c(c1)Oc1ccc(cc1)C[C@@H]3N(C)CC2)N(C)CC4 [Compound 17, (+)‐berbamine]", "unit_info": "%", "viability at 10 µM": 103}

The origin of these recorded values is paper PMC12497685.
